Where these numbers come from: the Human Domainome abundance scans (Beltran et al. 2025)

B1: Intersectin-1, residues 1156 to 1213; numbered along this chain, Q15811 (parent)
chain: AVCQVIGMYDYTAQNDDELAFNKGQIINVLNKEDPDWWKGEVNGQVGLFPSNYVKLTT

Variants of: B1
assay: abundance fitness (aPCA) (normalised: wild type 0, dead -1); higher = more abundant; growth selection in yeast, the domain comes from the species named
conditions.used: Homo sapiens
Respond with yes (1) for abundance fitness values of -0.7 and above, no (0) for values below.

Take a look at these entries with their results.
K23V yes (1)
V29Q no (0)
G44L no (0)
Y11S no (0)

Decide: is the reported value of abundance fitness for T58V equal to or greater than -0.7?
yes (1)

Decide: is the reported value of abundance fitness for L19T equal to or greater than -0.7?
yes (1)

Decide: is the reported value of abundance fitness for A13W equal to or greater than -0.7?
no (0)

Decide: is the reported value of abundance fitness for L48E equal to or greater than -0.7?
no (0)

Decide: is the reported value of abundance fitness for S51A equal to or greater than -0.7?
yes (1)

Decide: is the reported value of abundance fitness for D16W equal to or greater than -0.7?
no (0)

Decide: is the reported value of abundance fitness for G44W equal to or greater than -0.7?
no (0)

Decide: is the reported value of abundance fitness for D34T equal to or greater than -0.7?
yes (1)

Decide: is the reported value of abundance fitness for C3S equal to or greater than -0.7?
yes (1)

Decide: is the reported value of abundance fitness for F49K equal to or greater than -0.7?
no (0)

Decide: is the reported value of abundance fitness for C3A equal to or greater than -0.7?
yes (1)

Decide: is the reported value of abundance fitness for I6K equal to or greater than -0.7?
yes (1)

Decide: is the reported value of abundance fitness for Q45P equal to or greater than -0.7?
no (0)

Decide: is the reported value of abundance fitness for K23N equal to or greater than -0.7?
yes (1)

Decide: is the reported value of abundance fitness for N28P equal to or greater than -0.7?
no (0)
